These data points were gathered from patent US11155539B2.

# Target entity: NMDA NR1/NR2B receptor (Homo sapiens, UniProt Q05586+Q13224)
# Construct: host or cells: HEK293, tetracycline-inducible expression
# Sequence (Q13224 27-1484, other chains not shown): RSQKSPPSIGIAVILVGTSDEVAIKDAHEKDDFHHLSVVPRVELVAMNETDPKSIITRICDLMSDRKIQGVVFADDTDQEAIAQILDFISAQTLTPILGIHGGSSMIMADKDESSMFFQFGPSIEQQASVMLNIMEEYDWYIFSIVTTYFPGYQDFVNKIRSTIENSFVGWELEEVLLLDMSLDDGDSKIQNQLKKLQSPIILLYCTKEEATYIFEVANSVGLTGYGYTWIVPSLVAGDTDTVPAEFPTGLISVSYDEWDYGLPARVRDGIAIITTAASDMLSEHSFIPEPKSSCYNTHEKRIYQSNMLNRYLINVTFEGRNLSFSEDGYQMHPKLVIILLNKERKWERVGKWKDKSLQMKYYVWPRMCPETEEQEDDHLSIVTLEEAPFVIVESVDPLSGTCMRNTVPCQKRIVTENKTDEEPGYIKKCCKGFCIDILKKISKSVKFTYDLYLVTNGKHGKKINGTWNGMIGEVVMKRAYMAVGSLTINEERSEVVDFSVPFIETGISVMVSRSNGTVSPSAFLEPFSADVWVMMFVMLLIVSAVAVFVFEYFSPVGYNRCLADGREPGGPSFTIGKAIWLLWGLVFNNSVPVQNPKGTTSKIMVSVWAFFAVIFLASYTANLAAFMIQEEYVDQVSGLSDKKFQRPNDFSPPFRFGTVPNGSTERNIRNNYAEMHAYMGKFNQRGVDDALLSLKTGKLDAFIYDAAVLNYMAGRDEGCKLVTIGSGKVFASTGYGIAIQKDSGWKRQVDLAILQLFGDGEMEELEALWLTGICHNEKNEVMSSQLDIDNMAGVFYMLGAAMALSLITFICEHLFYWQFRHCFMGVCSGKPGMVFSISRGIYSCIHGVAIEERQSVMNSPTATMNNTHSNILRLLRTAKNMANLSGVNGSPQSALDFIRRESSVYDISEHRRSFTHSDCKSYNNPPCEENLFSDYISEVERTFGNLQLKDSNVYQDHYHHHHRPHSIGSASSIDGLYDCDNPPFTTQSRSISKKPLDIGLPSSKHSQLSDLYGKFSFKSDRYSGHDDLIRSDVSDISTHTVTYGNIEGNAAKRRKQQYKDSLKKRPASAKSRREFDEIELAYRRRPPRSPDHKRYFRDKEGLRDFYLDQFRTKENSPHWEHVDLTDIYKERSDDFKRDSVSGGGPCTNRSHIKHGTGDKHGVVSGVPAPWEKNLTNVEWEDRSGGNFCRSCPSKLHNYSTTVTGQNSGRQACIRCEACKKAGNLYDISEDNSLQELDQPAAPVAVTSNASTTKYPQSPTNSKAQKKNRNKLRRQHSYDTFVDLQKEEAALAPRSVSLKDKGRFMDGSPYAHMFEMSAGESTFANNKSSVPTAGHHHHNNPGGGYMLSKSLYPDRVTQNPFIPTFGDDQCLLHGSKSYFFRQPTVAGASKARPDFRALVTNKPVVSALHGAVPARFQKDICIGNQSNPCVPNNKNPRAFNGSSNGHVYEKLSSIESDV
# Test summary: In vitro NMDA NR1/NR2B cell assay (FLIPR, intracellular calcium induced by glycine/glutamate)
# Type: cell-based
# Conditions: HEK293 cells expressing NMDA NR1/NR2B; 20 μM glycine, 1 μM glutamate; read-out: IC50 (in vitro NR2B affinity, FLIPR assay)
Reported endpoint: IC50 (nM)
One number for each entry, in nM.

CNC(=O)[C@@H]1CN(Cc2ccc(Oc3ccc(Cl)cc3F)nc2)CCO1; 69
CNC(=O)[C@@H]1CN(Cc2ccc(Oc3ccc(C)cc3)nc2)CCO1; 194
CNC(=O)[C@@H]1CN(Cc2ccc(Oc3ccccc3F)cn2)CCO1; 366

input: Identify measured IC50 corresponding to `CNC(=O)[C@@H]1CN(Cc2ccc(Oc3c(C)cccc3F)nc2)CCO1`
output: 419

====

# Target entity: MDR1 (P-gp) (Homo sapiens, UniProt P08183)
# Construct: expressed in transfected cells; host or cells: MDCKII (Madin-Darby canine kidney)
# Sequence (P08183 whole entry): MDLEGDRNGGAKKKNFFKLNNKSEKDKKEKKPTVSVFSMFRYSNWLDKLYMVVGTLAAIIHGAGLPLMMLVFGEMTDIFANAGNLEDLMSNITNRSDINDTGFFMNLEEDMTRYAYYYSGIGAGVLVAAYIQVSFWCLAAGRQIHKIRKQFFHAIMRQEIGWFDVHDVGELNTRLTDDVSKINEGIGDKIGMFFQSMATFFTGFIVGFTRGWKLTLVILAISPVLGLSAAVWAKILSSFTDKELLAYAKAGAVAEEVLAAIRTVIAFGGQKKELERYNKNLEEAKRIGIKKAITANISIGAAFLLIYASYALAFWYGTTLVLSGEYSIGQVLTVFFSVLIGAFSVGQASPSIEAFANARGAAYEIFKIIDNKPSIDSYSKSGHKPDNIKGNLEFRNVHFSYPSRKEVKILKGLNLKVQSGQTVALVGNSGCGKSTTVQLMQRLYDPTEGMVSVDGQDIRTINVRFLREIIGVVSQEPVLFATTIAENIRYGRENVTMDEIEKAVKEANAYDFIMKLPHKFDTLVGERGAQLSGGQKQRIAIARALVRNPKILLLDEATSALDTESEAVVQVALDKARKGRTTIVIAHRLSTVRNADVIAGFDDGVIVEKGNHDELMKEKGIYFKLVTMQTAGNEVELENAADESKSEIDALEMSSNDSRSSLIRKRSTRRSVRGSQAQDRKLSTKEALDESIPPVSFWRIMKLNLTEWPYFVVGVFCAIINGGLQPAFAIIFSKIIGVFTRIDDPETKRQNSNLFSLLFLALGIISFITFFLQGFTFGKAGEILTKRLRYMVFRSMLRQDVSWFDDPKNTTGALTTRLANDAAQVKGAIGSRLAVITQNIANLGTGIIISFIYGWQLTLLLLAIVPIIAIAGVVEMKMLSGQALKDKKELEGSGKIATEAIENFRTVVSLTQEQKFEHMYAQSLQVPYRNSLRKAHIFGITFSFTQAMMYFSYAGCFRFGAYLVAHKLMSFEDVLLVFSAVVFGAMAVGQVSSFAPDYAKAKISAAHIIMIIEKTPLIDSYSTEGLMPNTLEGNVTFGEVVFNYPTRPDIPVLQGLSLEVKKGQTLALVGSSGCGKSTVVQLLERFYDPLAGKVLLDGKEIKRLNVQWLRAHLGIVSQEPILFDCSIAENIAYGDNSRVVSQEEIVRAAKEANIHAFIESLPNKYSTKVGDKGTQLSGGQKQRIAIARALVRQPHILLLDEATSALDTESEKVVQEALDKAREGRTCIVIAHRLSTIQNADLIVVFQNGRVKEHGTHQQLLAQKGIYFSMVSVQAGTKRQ
# Test summary: MDCK assay P-gp (permeability across MDCK-MDR1 monolayers)
# Format: in vitro ADME
# Conditions: pH 7.4, Papp (b-a) divided by Papp (a-b), MDCK-MDR1, read-out: efflux ratio PEBA/PEAB
Reported endpoint: efflux ratio at 2 h
Numbers only.

CNC(=O)C1CN(Cc2ccc(Oc3ccc(Cl)cc3F)nc2)CCO1 (stereo not drawn) [Example 15]; 0.7
CNC(=O)C1CN(Cc2ccc(Oc3ccc(F)cc3)nc2)CCO1 (stereo not drawn) [Example 14]; 0.4
CNC(=O)C1CN(Cc2ccc(Oc3ccc(C)cc3F)nc2)CCO1 (stereo not drawn) [Example 12]; 0.7
CNC(=O)C1CN(Cc2ccc(Oc3ccc(F)cc3F)nc2)CCO1 (stereo not drawn) [Example 11]; 0.6
CNC(=O)[C@@H]1CN(Cc2ccc(Oc3ccc(C)cc3F)cn2)CCO1 [Example 34]; 0.8

// for each compound in input: emit efflux ratio at 2 h
1. CNC(=O)[C@@H]1CN(Cc2ccc(Oc3ccccc3F)nc2)CCO1 [Example 19]
2. CNC(=O)[C@@H]1CN(Cc2ccc(Oc3ccc(F)cc3F)cn2)CCO1 [Example 31]

output:
1: 0.7; 2: 0.7

Please state, for each entry, its recorded efflux ratio at 2 h.
1. CNC(=O)[C@@H]1CN(Cc2ccc(Oc3ccccc3F)cn2)CCO1 [Example 33]
2. CNC(=O)C1CN(Cc2ccc(Oc3ccc(Cl)cc3)nc2)CCO1 (stereo not drawn) [Example 16]

output:
1: 0.5; 2: 0.7

====

Provide the recorded half-life at 1 μM for the entries that follow.
# Test summary: Metabolic stability in pooled human liver microsomes
# Format: in vitro ADME
# Conditions: pH 7.6, 1 μM compound, 37° C., NADPH, read-out: Half-life - t½ human liver microsomes
# Description: Stability in human liver microsomes refers to the susceptibility of compounds to biotransformation in the context of selecting and/or designing drugs with favorable pharmacokinetic properties. The primary site of metabolism for many drugs is the liver. […] The metabolic degradation of the test compound was assayed at 37° C. with pooled human liver microsomes. […] The half-life was determined by the slope of the semi-logarithmic plot of the concentration-time profile.

Some entries whose results are on file:
CNC(=O)[C@@H]1CN(Cc2ccc(Oc3ccc(Cl)cc3F)cn2)CCO1; > 2.17 h
CNC(=O)[C@@H]1CN(Cc2ccc(Oc3ccc(F)cc3)cn2)CCO1; > 2.17 h
CNC(=O)C1CN(Cc2ccc(Oc3ccc(C)cc3C)nc2)CCO1 (centres unmarked); > 2.17 h
CNC(=O)C1CN(Cc2ccc(Oc3ccc(Cl)cc3)nc2)CCO1 (centres unmarked); > 2.17 h

Please examine the following record next.
input: For the molecule CNC(=O)C1CN(Cc2ccc(Oc3ccc(C)cc3F)nc2)CCO1 (centres unmarked) , give its reported half-life at 1 μM.
output: > 2.17 h
